test system: mice; assay: Dispair test (Porsolt) in mice; type: in vivo, Swiss strain male mice (CD-1 Charles River); conditions: Mus musculus, ip, 1 h; Dispair test, i.p.; read-out: active dosage
quantity_measured: minimal effective dose

Some solved cases for reference:
>  <structure_smiles>
Nc1nnc(SCc2ccccc2)s1

>  <reported_value>
5 to 10 mg/kg

$$$$
>  <structure_smiles>
COc1ccc(CSc2nnc(N)s2)cc1

>  <reported_value>
~0.5 mg/kg

$$$$

Read the next record carefully.
Please give measured minimal effective dose of the following entry: CC(=O)Nc1nnc(SCc2ccccc2)s1
~0.5 mg/kg
